Tested on: Mycobacterium tuberculosis
Procedure details: Antitubercular activity against Mycobacterium tuberculosis H37Rv assessed as growth inhibition by micro plate alamar blue assay
Format: functional
Record form. Attribute: MIC. Fill in for each entry.
One number for each entry, in µM.

INSERT INTO results (molecule, unit_name, assay_value) VALUES
  ('CO[C@H]1/C=C/O[C@@]2(C)Oc3c(C)c(O)c4c(O)c(c(/C=N/N5CCN(C)CC5)c(O)c4c3C2=O)NC(=O)/C(C)=C\C=C\[C@H](C)[C@H](O)[C@@H](C)[C@@H](O)[C@@H](C)[C@H](OC(C)=O)[C@@H]1C [RIFAMPIN]', 'µM', 2),
  ('COc1ccc2c(c1)CCc1c(-c3ccc(OCCCC(=O)NN)cc3)nc(N)nc1-2', 'µM', 200),
  ('CCOC(=O)CCCCOc1ccc(-c2nc(N)nc3c2CCc2cc(OC)ccc2-3)cc1', 'µM', 200),
  ('COc1ccc2c(c1)CCC1C2=NN(C(C)=O)C1c1ccc(OCCN2CCCC2)cc1 (configuration not stated)', 'µM', 200),
  ('COc1ccc2c(c1)CCc1c(-c3ccc(OC(C)CN(C)C)cc3)nc(N)nc1-2 (configuration not stated)', 'µM', 200);

Here are 5 molecules. What values of MIC were reported for them?
1. COc1ccc2c(c1)CCC1C2=NN(C(C)=O)C1c1ccc(OC(C)CN(C)C)cc1 (configuration not stated)
2. CCOC(=O)CCCOc1ccc(-c2nc(N)nc3c2CCc2cc(OC)ccc2-3)cc1
3. N#CCc1cc(-c2ccc(Br)cc2)[nH]n1
4. COc1ccc2c(c1)CCc1c(-c3ccc(OCCCCC(=O)NN)cc3)nc(N)nc1-2
5. NNC(=O)c1ccncc1 [ISONIAZID]

1: 200; 2: 50; 3: 25; 4: 200; 5: 0.2

====

Record form. Attribute: MIC. Fill in for each entry.
System: Mycobacterium tuberculosis
Procedure details: Antitubercular activity against Mycobacterium tuberculosis H37Rv assessed as growth inhibition by micro plate alamar blue assay
Type: functional
Answers are plain numbers, in µM.

Check out these entries, answers already filled in.
INSERT INTO measurements (compound, unit_name, assay_value) VALUES
  ('CN[C@@H]1[C@H](O[C@H]2[C@H](O[C@H]3[C@H](O)[C@@H](O)[C@H](N=C(N)N)[C@@H](O)[C@@H]3N=C(N)N)O[C@@H](C)[C@]2(O)C=O)O[C@@H](CO)[C@H](O)[C@H]1O [STREPTOMYCIN]', 'µM', 6),
  ('COc1ccc2c(c1)CCc1c(-c3ccc(OCCN4CCCCC4)cc3)nc(N)nc1-2', 'µM', 50),
  ('CCOC(=O)CCCCCOc1ccc(-c2nc(N)nc3c2CCc2cc(OC)ccc2-3)cc1', 'µM', 200);

Hello, I am looking for reported MIC with Mycobacterium tuberculosis for COc1ccc2c(c1)CCc1c(-c3ccc(OCCCCCC(=O)NN)cc3)nc(N)nc1-2 . Could you help? 200

====

Procedure details: Cytotoxicity against human THP1 cells after 24 hrs by MTT assay
Type: cell-based, THP-1
Record form. Attribute: CC50 at 24 h. Fill in for each entry.

Here are 5 molecules. What values of CC50 at 24 h were reported for them?
1. CCOC(=O)CCCOc1ccc(-c2nc(N)nc3c2CCc2cc(OC)ccc2-3)cc1
2. COc1ccc2c(c1)CCc1c(-c3ccc(OCCN(C)C)cc3)nc(N)nc1-2
3. N#CCc1cc(-c2ccc(Br)cc2)[nH]n1
4. COc1ccc(-c2cc(/C(C#N)=C/N(C)C)n[nH]2)cc1
5. COc1ccc2c(c1)CCc1c(-c3ccc(OCCN4CCCCC4)cc3)nc(N)nc1-2

200 µM
200 µM
> 200 µM
> 200 µM
200 µM

Data origin, for the record: ChEMBL document CHEMBL2434836
